Assay: Distribution coefficient, logD of compound at pH 7.4 by HPLC analysis
Assay type: physicochemical
Conditions: octanol/water, read-out: logD
Category scheme (logD): interval 1: < 1; interval 2: ≥ 1 and < 2; interval 3: ≥ 2

COMPOUND	CAT
O=C(O)c1cc(-c2ccc(C3=CC4CCC(C3)N4)cc2)c2ccc(-c3ccc(C(F)(F)F)cc3)cc2c1 (racemic)	interval 3
O=C(O)c1cc(-c2ccc([C@@]3(O)C[C@H]4CC[C@@H](C3)N4)cc2)c2ccc(-c3ccc(C(F)(F)F)cc3)cc2c1	interval 2
O=C(O)c1cc(-c2ccc(C34CCNCC3C4(F)F)cc2)c2ccc(-c3ccc(C(F)(F)F)cc3)cc2c1 (racemic)	interval 3
O=C(O)c1cc(-c2ccc([C@@]3(O)C[C@H]4CC[C@@H]3CN4)cc2)c2ccc(-c3ccc(C(F)(F)F)cc3)cc2c1 (racemic)	interval 1
N[C@H]1C[C@@H](C(=O)O)[C@H](c2ccc(-c3cc(C(=O)O)cc4cc(-c5ccc(C(F)(F)F)cc5)ccc34)cc2)C1	interval 1
O=C(O)c1cc(-c2ccc([C@@H]3C[C@H]4CN[C@@H]3C4)cc2)c2ccc(-c3ccc(C(F)(F)F)cc3)cc2c1	interval 3
CC(=O)N1C[C@H]2C[C@@H]1C[C@@H]2c1ccc(-c2cc(C(=O)O)cc3cc(-c4ccc(C(F)(F)F)cc4)ccc23)cc1	interval 1
COC1(c2ccc(-c3cc(C(=O)O)cc4cc(-c5ccc(C(F)(F)F)cc5)ccc34)cc2)[C@H]2CC[C@H]1CNC2 (stereo not given in full)	interval 2
O=C(O)c1cc(-c2ccc(C3[C@H]4CC[C@H]3CNC4)cc2)c2ccc(-c3ccc(C(F)(F)F)cc3)cc2c1 (stereo not given in full)	interval 3

* * *

Target: Sigma intracellular receptor 2 (Homo sapiens)
Sequence (Q5BJF2 whole entry): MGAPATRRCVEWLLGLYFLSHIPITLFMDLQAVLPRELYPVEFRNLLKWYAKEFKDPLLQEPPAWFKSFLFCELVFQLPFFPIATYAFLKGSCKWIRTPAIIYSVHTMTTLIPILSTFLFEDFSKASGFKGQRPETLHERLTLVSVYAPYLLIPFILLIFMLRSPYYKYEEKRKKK
Assay: Inhibition of sigma 2 receptor (unknown origin) assessed as binding constant
EXPERIMENTAL READOUT: Ki (nM)

1. O=C(O)c1cc(-c2ccc([C@@H]3C[C@@H]4C[C@H]3CN4)cc2)c2ccc(-c3ccc(C(F)(F)F)cc3)cc2c1 1200
2. CN(C)C(=O)COC(=O)c1cc(-c2ccc([C@H]3C[C@H]4C[C@@H]3CN4)cc2)c2ccc(-c3ccc(C(F)(F)F)cc3)cc2c1 390
3. O=C(O)c1cc(-c2ccc([C@@H]3C[C@@H]4C[C@H]3C(=O)N4)cc2)c2ccc(-c3ccc(C(F)(F)F)cc3)cc2c1 1900
